target: Tyrosine-protein kinase Fes/Fps (Homo sapiens) (UniProt P07332); conditions: at 1 µM;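 further: mean inhibition of FES from the GSK PKIS kinase inhibitor screening set, assayed by Nanosyn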
Sequence (P07332 whole entry): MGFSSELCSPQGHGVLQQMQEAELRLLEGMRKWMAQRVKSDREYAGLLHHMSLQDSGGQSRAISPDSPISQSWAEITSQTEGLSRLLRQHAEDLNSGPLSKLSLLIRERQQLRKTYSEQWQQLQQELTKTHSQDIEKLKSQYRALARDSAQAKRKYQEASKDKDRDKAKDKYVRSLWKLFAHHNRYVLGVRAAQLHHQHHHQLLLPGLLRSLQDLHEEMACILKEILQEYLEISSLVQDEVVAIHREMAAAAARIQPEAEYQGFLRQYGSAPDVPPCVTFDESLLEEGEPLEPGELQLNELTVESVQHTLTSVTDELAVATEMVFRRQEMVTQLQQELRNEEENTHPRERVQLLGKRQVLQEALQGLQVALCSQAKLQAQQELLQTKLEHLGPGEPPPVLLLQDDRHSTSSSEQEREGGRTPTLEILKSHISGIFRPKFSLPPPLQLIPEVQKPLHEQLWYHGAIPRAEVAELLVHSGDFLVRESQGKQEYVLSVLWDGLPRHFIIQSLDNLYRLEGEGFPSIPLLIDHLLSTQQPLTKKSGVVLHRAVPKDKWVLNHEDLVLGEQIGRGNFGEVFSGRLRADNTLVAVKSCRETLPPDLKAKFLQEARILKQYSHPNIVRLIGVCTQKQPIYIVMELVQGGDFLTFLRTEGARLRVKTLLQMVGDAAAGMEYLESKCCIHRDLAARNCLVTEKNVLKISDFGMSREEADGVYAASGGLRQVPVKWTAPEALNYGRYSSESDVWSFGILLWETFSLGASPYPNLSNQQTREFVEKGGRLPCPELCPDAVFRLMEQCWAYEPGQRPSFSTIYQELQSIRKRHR
Answer each item with its documented inhibition.
Numbers only, in %.

Use the examples below as a reference point.
> print(dat)
                                  structure  measured.parameter  unit.annotation  value.measured
1                CCn1c(-c2nonc2N)nc2ccccc21          inhibition                %            2.57
2  CS(=O)(=O)CCNCc1ccc(-c2ccc3ncnc(Nc4ccc(OCc5ccccc5)c(C(F)(F)F)c4)c3c2)o1          inhibition                %            3.27
3  COC(=O)c1sc(-n2cnc3cc(OC)c(OC)cc32)cc1OCc1ccccc1C(F)(F)F          inhibition                %            3.74
4  COc1cc(N2CCN(C(C)C)CC2)ccc1Nc1nc(Nc2ccc(F)cc2C(N)=O)c2cc[nH]c2n1          inhibition                %            81.7
5  CC(C)COC(=O)c1ccc2c(c1)/C(=C/Nc1ccc(S(N)(=O)=O)cc1)C(=O)N2          inhibition                %           -0.27

Dear reader, for each entry below, please note its inhibition.
1. COc1ccc(-c2cc3c(N)ncnc3o2)cc1
2. Cc1cccc2c1NC(=O)/C2=N\Nc1ccc(S(N)(=O)=O)cc1
3. CCCN(CCS(C)(=O)=O)Cc1ccc(-c2ccc3ncnc(Nc4ccc(OCc5cccc(F)c5)c(Cl)c4)c3c2)o1
4. O=S(=O)(CCNCc1ccc(-c2ccc3ncnc(Nc4ccc(OCc5cccc(F)c5)c(Cl)c4)c3c2)o1)c1ccccc1
5. Nc1ncc(-c2cccc(S(N)(=O)=O)c2)c2scc(-c3ccc(F)c(Cl)c3)c12
6. COC(=O)Nc1nc2ccc(S(=O)(=O)c3ccc(NC(=O)Nc4cc(C(F)(F)F)ccc4F)cc3)cc2[nH]1

A.
1. -0.8
2. 2.97
3. 1.43
4. 4.26
5. 7.1
6. 2.5

Origin of measurements: ChEMBL document CHEMBL1961873
